Data provenance is paper PMC6736568.

system: HCT-8 host cells (Hs18S); details: 10 µM
Rule: Cytotoxicity (%) below -20% gives yes (1). Equal to or above -20% gives no (0).

compound: O=C(O)c1cc(O)c(=O)c2c(O)c(O)cc([C@H]3Oc4cc(O)cc(O)c4C[C@H]3O)c2c1 [EPITHEAFLAVIC ACID]
discrete_label: no (0)

compound: O=c1cc(-c2cc(O)c(O)c(O)c2)oc2cc(O)cc(O)c12
discrete_label: no (0)

compound: COc1c(-c2ccccc2)oc2cc(O)cc(O)c2c1=O
discrete_label: yes (1)

compound: CN(C)CC(=O)OC[C@@H](O)[C@@H](O)[C@H](O)[C@@H](O)C(=O)[O-].[Na+] [PANGAMIC ACID SODIUM]
discrete_label: yes (1)
